- System: up-regulation of ICAM-1 (CD54) by IFNγ in A549 lung epithelial cells
- assay.protocol: A549 Epithelial Line Stimulated with IFNγ (ICAM-1 surface expression, FACS)
- Type: cell-based, human
- experimental.context: Homo sapiens, A549, A549 epithelial line stimulated with IFNγ; ICAM-1 expression by FACS; read-out: IC50, Example 43
pIC50: −log10 of the molar value.

molecular.string: Cc1ccc(Nc2ncc(C)c(Nc3ccc(OCC(=O)N(C)C)c(F)c3)n2)cc1S(N)(=O)=O
pIC50: 4.94
--
molecular.string: COc1cc(Nc2nc(Nc3ccc(S(N)(=O)=O)cc3)ncc2F)cc(OCC#N)c1OC
pIC50: 4.73
--
molecular.string: COc1cc(Nc2nc(Nc3ccc(S(N)(=O)=O)cc3)ncc2F)ccc1OCC#N
pIC50: 4.77
--
molecular.string: Cc1cnc(Nc2cccc(S(N)(=O)=O)c2)nc1Nc1ccc(OCC#N)cc1
pIC50: 6.14
--
molecular.string: Cc1ccc(Nc2ncc(F)c(Nc3ccc(Oc4cccnc4)cc3)n2)cc1S(N)(=O)=O
pIC50: 5.26
--
molecular.string: NC(=O)COc1ccc(Nc2nc(Nc3cccc(S(N)(=O)=O)c3)ncc2F)cc1F
pIC50: 4.29
--
molecular.string: Cc1ccc(Nc2ncc(F)c(Nc3ccc(OCC(N)=O)c(F)c3)n2)cc1S(N)(=O)=O
pIC50: 4.36
--
molecular.string: N#CCOc1ccc(Nc2nc(Nc3ccc(S(N)(=O)=O)cc3)ncc2F)cc1Cl
pIC50: 4.99
